The measurements presented in this section are drawn from the supplement of paper PMC3334620.

Target: Sko1 (UniProt Q02100)
Sequence: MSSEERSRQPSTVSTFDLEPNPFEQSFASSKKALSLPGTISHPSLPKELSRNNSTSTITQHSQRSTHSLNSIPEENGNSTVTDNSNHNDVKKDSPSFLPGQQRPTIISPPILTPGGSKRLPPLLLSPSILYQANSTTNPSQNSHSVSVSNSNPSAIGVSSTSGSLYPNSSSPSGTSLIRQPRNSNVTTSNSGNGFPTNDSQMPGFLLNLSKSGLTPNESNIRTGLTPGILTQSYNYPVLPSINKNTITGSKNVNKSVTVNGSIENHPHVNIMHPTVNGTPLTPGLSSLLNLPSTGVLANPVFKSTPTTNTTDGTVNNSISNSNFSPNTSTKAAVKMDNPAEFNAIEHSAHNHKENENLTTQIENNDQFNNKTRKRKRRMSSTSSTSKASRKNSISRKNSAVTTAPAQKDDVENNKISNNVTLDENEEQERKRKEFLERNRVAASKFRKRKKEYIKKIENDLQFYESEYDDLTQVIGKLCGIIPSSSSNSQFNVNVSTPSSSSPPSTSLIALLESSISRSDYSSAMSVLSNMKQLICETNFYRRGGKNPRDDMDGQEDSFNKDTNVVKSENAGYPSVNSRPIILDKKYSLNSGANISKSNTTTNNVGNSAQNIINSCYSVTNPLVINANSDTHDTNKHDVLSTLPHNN
Assay: PBM E-score (8-mer binding enrichment) (E-score (-0.5 to 0.5)); higher = stronger / more preferred TF binding
Conditions: protein concentration: 200 nM; construct: GST-full length
The full ranking holds about 33,000 sequences; the median of “E-score (-0.5 to 0.5)” is about -0.032, and the highest 2% start at about 0.36. The full list was thinned out, with the highest values kept by preference.
Label y for high-side PBM E-score (at or above 0.01) and n for low-side PBM E-score (below it).

Answered cases to consult:
Test whether the sequence CCGCGGGA records PBM E-score of 0.01 or higher.
n

Test whether the sequence CCACCTGA records PBM E-score of 0.01 or higher.
n

Test whether the sequence ACCACAAA records PBM E-score of 0.01 or higher.
y

Test whether the sequence AGAGCGAT records PBM E-score of 0.01 or higher.
n

Test whether the sequence CTGCCATA records PBM E-score of 0.01 or higher.
n

Test whether the sequence GTGATCAA records PBM E-score of 0.01 or higher.
y

Test whether the sequence GCGGACGC records PBM E-score of 0.01 or higher.
n

Test whether the sequence TATCAGCA records PBM E-score of 0.01 or higher.
y

Test whether the sequence AGTTGCAA records PBM E-score of 0.01 or higher.
y

Test whether the sequence CGCCAGGC records PBM E-score of 0.01 or higher.
n

New cases:
Test whether the sequence ACATAGGG records PBM E-score of 0.01 or higher.
n

----------
Target: Sko1 (UniProt Q02100)
Sequence: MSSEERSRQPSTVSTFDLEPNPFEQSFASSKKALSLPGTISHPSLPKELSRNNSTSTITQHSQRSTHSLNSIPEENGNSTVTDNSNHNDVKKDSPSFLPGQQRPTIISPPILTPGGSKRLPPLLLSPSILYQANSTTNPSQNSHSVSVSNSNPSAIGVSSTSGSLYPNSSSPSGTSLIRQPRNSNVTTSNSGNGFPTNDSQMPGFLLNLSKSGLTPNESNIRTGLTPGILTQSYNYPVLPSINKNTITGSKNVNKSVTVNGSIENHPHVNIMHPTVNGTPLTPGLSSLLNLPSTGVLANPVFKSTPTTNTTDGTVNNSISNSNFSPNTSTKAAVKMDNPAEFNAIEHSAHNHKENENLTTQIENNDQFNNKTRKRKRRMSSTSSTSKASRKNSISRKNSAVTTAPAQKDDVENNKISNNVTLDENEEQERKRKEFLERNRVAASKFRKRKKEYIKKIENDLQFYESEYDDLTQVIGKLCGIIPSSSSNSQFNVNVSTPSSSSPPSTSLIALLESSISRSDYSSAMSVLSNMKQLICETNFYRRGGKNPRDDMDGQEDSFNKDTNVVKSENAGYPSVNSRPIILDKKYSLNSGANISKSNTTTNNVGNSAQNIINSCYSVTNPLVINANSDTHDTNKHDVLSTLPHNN
Assay: PBM E-score (8-mer binding enrichment) (E-score (-0.5 to 0.5)); higher = stronger / more preferred TF binding
Conditions: protein concentration: 200 nM; construct: GST-full length
The full ranking holds about 33,000 sequences; the median of “E-score (-0.5 to 0.5)” is about -0.032, and the highest 2% start at about 0.36. The full list was thinned out, with the highest values kept by preference.
experimental.endpoint: PBM E-score
Output spec: single numeric token, no unit.

PBM E-score for ACGTACAT is 0.449

PBM E-score for CTTGAAAG is -0.0877

PBM E-score for ACGTACAA is 0.414

PBM E-score for AAAATGAT is 0.246

PBM E-score for ACGTAAAA is 0.463

Consider now this further sequence.
PBM E-score for ACCTGAGC is 0.0188

----------
Target: Sko1 (UniProt Q02100)
Sequence: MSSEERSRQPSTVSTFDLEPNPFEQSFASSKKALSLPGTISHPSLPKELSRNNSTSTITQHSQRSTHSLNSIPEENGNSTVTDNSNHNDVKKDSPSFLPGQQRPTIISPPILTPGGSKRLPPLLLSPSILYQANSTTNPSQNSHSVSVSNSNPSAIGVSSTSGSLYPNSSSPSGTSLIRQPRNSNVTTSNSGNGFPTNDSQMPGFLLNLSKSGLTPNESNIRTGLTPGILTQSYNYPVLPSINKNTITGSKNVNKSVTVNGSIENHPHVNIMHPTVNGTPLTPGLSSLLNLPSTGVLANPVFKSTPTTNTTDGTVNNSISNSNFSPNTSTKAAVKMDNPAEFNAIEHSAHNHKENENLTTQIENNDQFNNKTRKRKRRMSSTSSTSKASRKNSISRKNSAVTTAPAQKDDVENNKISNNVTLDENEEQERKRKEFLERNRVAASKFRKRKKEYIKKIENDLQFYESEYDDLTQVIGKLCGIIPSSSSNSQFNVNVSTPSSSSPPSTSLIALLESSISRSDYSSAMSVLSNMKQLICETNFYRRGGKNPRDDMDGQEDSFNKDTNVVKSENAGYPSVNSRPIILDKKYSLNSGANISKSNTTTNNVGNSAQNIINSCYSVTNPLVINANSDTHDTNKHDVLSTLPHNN
Assay: PBM E-score (8-mer binding enrichment) (E-score (-0.5 to 0.5)); higher = stronger / more preferred TF binding
Settings: protein concentration: 200 nM; construct: GST-full length
Over roughly 33,000 sequences, “E-score (-0.5 to 0.5)” has its median near -0.032; the highest 2% begin near 0.36. Many of the other results were omitted from the sample, so the highest values are more common in it than they were.
experimental.endpoint: PBM E-score
Output spec: single numeric token, no unit.

PBM E-score for ACGTACAG is 0.415

PBM E-score for GGACGTAC is 0.275

PBM E-score for CGACGAAG is 0.00357

PBM E-score for GGACGACA is 0.0412

PBM E-score for AGTGACAT is 0.361

PBM E-score for GACTCTGA is -0.104

New cases:
PBM E-score for GCCTCAAC is -0.175

PBM E-score for CTTCCTAC is -0.225

PBM E-score for ACGTACAC is 0.444

PBM E-score for AGTCCGTA is -0.218

----------
A collection of sequences and their measured PBM E-score
Target: Sko1 (UniProt Q02100)
Sequence: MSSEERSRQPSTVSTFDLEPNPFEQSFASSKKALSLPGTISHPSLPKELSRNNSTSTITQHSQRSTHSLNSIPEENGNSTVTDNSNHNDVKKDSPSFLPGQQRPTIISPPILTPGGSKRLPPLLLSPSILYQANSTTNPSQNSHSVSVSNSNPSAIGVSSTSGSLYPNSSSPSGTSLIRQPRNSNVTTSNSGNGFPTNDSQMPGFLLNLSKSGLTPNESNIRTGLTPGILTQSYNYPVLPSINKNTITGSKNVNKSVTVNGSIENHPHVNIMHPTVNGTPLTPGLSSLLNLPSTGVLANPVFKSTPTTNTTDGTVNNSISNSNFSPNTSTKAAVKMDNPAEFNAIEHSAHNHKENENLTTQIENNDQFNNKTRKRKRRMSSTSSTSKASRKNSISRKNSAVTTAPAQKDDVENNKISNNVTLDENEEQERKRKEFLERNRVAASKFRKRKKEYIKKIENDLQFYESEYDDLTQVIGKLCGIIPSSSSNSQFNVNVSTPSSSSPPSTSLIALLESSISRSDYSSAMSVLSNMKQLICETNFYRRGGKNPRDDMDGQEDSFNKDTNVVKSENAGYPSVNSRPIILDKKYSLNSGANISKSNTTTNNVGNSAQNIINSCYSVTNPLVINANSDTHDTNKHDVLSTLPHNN
Assay: PBM E-score (8-mer binding enrichment) (E-score (-0.5 to 0.5)); higher = stronger / more preferred TF binding
Settings: protein concentration: 200 nM; construct: GST-full length
The full ranking holds about 33,000 sequences; the median of “E-score (-0.5 to 0.5)” is about -0.032, and the highest 2% start at about 0.36. For the sample, the highest values were picked, then their nearest neighbours and some sequences at random.
Output spec: single numeric token, no unit.

The following sequences have reported results that may help.
PBM E-score for CCGCCATC is -0.29

PBM E-score for CAGCGAGG is -0.233

PBM E-score for CTCAGGAG is -0.159

PBM E-score for AGTTGAAT is 0.135

PBM E-score for ATTTCTTG is 0.164

Consider now this further sequence.
PBM E-score for CACACGGA is -0.167
